Below is a list of entries, each paired with its recorded INHIBITION value.
Tested on: Plasmodium berghei
Assay: Screen against P. berghei liver stage (PbLuc), transformed with Luciferase, at 10uM
Format: functional, HepG2
Settings: tested at 10 uM
Among all 69,000 compounds or so, about 8,600 (12%) showed an effect of 50% or more. The sample holds strong results, similar compounds and a random draw of the others, so the mix is not that of the screen.

compound: CN(C(=O)c1ccccc1Cl)C1CCN(c2ccccn2)CC1
INHIBITION: 28.6%

compound: CCc1cc(O)nc(C2CCCN2C(=O)c2cc(C)no2)n1 (stereo not drawn)
INHIBITION: 26.9%

compound: COCCN1C(=O)CCC12CCC(NCc1cccc(C)n1)CC2 (stereo not drawn)
INHIBITION: 41%

compound: CC(C)(O)CCc1cccc(C(=O)N2CCC[C@H]2C(N)=O)c1
INHIBITION: 40.2%

compound: COc1cccc(C(=O)N2CCc3c(nc(N)[nH]c3=O)C2)c1C
INHIBITION: 21.8%

compound: O=C1OCCC1N1CCN(c2ccccn2)CC1 (stereo not drawn)
INHIBITION: 59.3%

compound: Cc1noc(C)c1CC(=O)N1CCCC(Cc2ccccn2)C1 (stereo not drawn)
INHIBITION: -0.6%

compound: Cc1ccccc1CN1C[C@@H](C(=O)N2CCCCO2)C[C@H]2OCC[C@H]21
INHIBITION: 42.7%

compound: Cc1cccc(C(=O)N(C)C2CCN(c3ccccn3)CC2)c1C
INHIBITION: 37.3%

compound: CNC(=O)CN1C(=O)CCC12CCCN(Cc1cccc(F)c1)C2 (stereo not drawn)
INHIBITION: 32.1%

compound: Cc1ccccc1N1CC2(CCN(Cc3nccn3C)C2)CC1=O (stereo not drawn)
INHIBITION: 25.2%

compound: Cc1ccc(C(=O)N2CCCC(n3cccn3)C2)cc1S(C)(=O)=O (stereo not drawn)
INHIBITION: 23.95%

compound: CC(CNC1CCN(c2ccccn2)CC1)Oc1ccc(F)cc1 (stereo not drawn)
INHIBITION: 65.4%

compound: COCC(C)N(C)C(=O)NC1CCN(S(C)(=O)=O)CC1 (stereo not drawn)
INHIBITION: 36.2%

compound: CCn1cnnc1CNC(=O)N1CCC(OCc2ccccc2)CC1
INHIBITION: 23.4%

compound: CCC1CCCCN1C(=O)Cn1nc(-c2cc(C)oc2C)cc(N)c1=O (stereo not drawn)
INHIBITION: 37.5%

compound: CC(C)CCN1C[C@@H]2C[C@H](C(=O)N3CCCC3)[C@H](C1)O2
INHIBITION: 10.6%

compound: c1cc(CNCC2Cn3nncc3CO2)ccn1 (stereo not drawn)
INHIBITION: 29.8%

compound: CC(C)n1ccc(C(=O)NCC(O)c2c(Cl)cccc2Cl)n1 (stereo not drawn)
INHIBITION: 24.3%

compound: O=C1CC(c2ccc3c(c2)OCO3)c2cn[nH]c2N1 (stereo not drawn)
INHIBITION: 6%

compound: CNC(=O)[C@H]1C[C@H]2OCC[C@H]2N(Cc2ccc(F)cc2)C1
INHIBITION: 33%

compound: CN(C)C(=O)[C@H]1C[C@H]2OCC[C@H]2N(Cc2ccc(F)cc2)C1
INHIBITION: 53.2%

compound: O=C(c1cnccn1)N1C[C@@H](OCc2cccnc2)[C@H]2OCCC[C@H]21
INHIBITION: 14.6%

compound: O=C1CC(c2cccs2)c2cnn(C3CCCC3)c2N1 (stereo not drawn)
INHIBITION: 14.4%

compound: c1coc(CNCC2Cn3nncc3CO2)c1 (stereo not drawn)
INHIBITION: 62.9%

compound: COc1ccc(C(C)CCNC2CCN(c3ccccn3)CC2)cc1 (stereo not drawn)
INHIBITION: 53.4%

compound: O=C1CC(c2ccc3c(c2)OCO3)c2c(n3ccsc3nc2=O)N1 (stereo not drawn)
INHIBITION: 5.85%

compound: O=C1OCCC1N1CCN(c2ccc(O)cc2)CC1 (stereo not drawn)
INHIBITION: 43.1%

compound: CCN1CCOC(CNCc2ccccn2)C1 (stereo not drawn)
INHIBITION: 33%

compound: O=C1CC(c2ccsc2)c2cnn(C3CCCC3)c2N1 (stereo not drawn)
INHIBITION: 6.09%

compound: CCn1ccc2ccc(CN3CCCC3c3nc(C(C)C)no3)cc21 (stereo not drawn)
INHIBITION: 61.2%

compound: CCc1c(C)nc(C2CCCN2C(=O)c2cc(C)no2)nc1O (stereo not drawn)
INHIBITION: 30.4%

compound: O=C1OCCC1N1CCN(c2cnccn2)CC1 (stereo not drawn)
INHIBITION: 3.69%

compound: O=C([C@H]1C[C@H]2OCC[C@H]2N(Cc2ccccc2F)C1)N1CCCCO1
INHIBITION: 59%

compound: O=C1Nc2ccccc2C12CCN(c1nccs1)CC2
INHIBITION: -15.9%

compound: Cc1nn(C2CCCC2)c2c1C(c1ccc3c(c1)OCO3)SCC(=O)N2 (stereo not drawn)
INHIBITION: 61.6%

compound: CCc1n[nH]c(C2CN(CCCS(C)(=O)=O)CCO2)n1 (stereo not drawn)
INHIBITION: 9.14%

compound: CCc1cc(C(=O)N2CCCC2c2nc(C)c(CC)c(O)n2)on1 (stereo not drawn)
INHIBITION: -21.4%

compound: CCn1cc(CN2CCCC2c2nc(C(C)C)no2)cc1C#N (stereo not drawn)
INHIBITION: 25.8%

compound: COCC(C)N(C)C(=O)NC1CCN(c2ncccn2)CC1 (stereo not drawn)
INHIBITION: 52.2%

compound: O=C([C@H]1C[C@H]2OCC[C@H]2N(Cc2ccoc2)C1)N1CCCCO1
INHIBITION: 88.2%

compound: CCN1CCOC(CNCc2ccc(C)s2)C1 (stereo not drawn)
INHIBITION: 73.6%

compound: c1cc(CNCC2Cn3nncc3CO2)co1 (stereo not drawn)
INHIBITION: -21.7%

compound: Cc1cc(C(=O)N2CCCC2c2nc(O)cc(C(C)C)n2)on1 (stereo not drawn)
INHIBITION: 51.5%

compound: O=C1CC(c2ccc3c(c2)OCO3)c2cnn(C3CCCC3)c2N1 (stereo not drawn)
INHIBITION: 87.9%

compound: CN(C(=O)Cc1ccccc1F)C1CCN(c2ccccn2)CC1
INHIBITION: 52.3%

compound: O=C1CC(c2ccccc2)c2cnn(C3CCCC3)c2N1 (stereo not drawn)
INHIBITION: 68%

compound: CCN1CCOC(CNCc2cnc(C(C)(C)C)s2)C1 (stereo not drawn)
INHIBITION: 46.5%
